// provenance: patent US20100184815A1

Experiment: Metabolism studies using human liver microsomal preparations
Format: in vitro ADME
Conditions: comparison of half life with and without NADPH: Esterase, CYP or Mixed

{"columns": ["molecule", "HLMs Predominant Enzyme"],
 "data": [
  ["C[C@@H](Cc1cn(Cc2ccc(C(F)(F)F)cc2)nn1)OC(=O)c1ccc(SC(C)(C)C(=O)O)cc1 [Compound 147]", "Mixed"],
  ["CCCc1nn(Cc2ccc(C(F)(F)F)cc2)cc1COC(=O)c1ccc(SC(C)(C)C(=O)O)cc1 [Compound 12]", "Esterase"],
  ["CC(C)(Sc1ccc(C(=O)OCc2cn(Cc3ccc(C(C)(C)C)cc3)nn2)cc1)C(=O)O [Compound 69]", "Esterase"],
  ["Cc1ccc(Cn2cc([C@@H](C)OC(=O)c3ccc(SC(C)(C)C(=O)O)cc3)nn2)cc1 [Compound 87]", "Esterase"]
]}
